Origin of values: the RNAGym collection of RNA variant scans (doi:10.7554/elife.90254)

B1: OR4K15 (parent)
chain: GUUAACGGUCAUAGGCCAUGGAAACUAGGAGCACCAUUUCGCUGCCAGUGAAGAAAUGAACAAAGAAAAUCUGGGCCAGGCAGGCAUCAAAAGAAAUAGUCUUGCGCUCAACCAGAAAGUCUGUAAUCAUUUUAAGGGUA

# Variants of: B1
# EXPERIMENT DESCRIPTION: self-cleavage, relative activity (ratio to wild type); higher = more cleavage; in vitro, sequencing; the parent is a self-cleaving ribozyme
ENDPOINT LABEL: self-cleavage
No unit in the answer, only the number.

query: Fill in: self-cleavage of GUUAACGGUCAUAGGCCAUGGAAACUAGGAGCACCAUUUCGCUGCCAGUGAAGAAAUGAACAAAGUAAAUCUGGGCCAGGCAGGCAUCAAAAGAAAUAGUCUUGCGCUCAACCAGAAAGUCGGUAAUCAUUUUAAGGGUA [A66U U122G] is ___
result: 2.33

query: Fill in: self-cleavage of GUUAACGGUCAUAUGCCAUGGAAACUAGGAGCACCAUUUCGCUGCCAGUGAAGAAAUGAACAAAGAAAAUCUGGGCCAGGCAGGCAUCAAAAGAAAUAGUCUUGCGCUCAACCAGAAAGUCUGUAAUCAUUUUACGGGUA [G14U A135C] is ___
result: 1.41

query: Fill in: self-cleavage of GCUAACGGUCAUAGGCCAUGGAAACUAGGAGCACCUUUUCGCUGCCAGUGAAGAAAUGAACAAAGAAAAUCUGGGCCAGGCAGGCAUCAAAAGAAAUAGUCUUGCGCUCAACCAGAAAGUCUGUAAUCAUUUUAAGGGUA [U2C A36U] is ___
result: 1.11

query: Fill in: self-cleavage of GUUAACGGUCAUAGGCCAUGGAAACUAGGAGCACCAUUUCGCUGCCAGUGAAGAAAUGAACAAAGAUAAUCUGGGCCAGGCAGGCAUCAAAAGAAAUAGUCUUGCGCUCAACCAGAAAGUCUGUAACCAUUUUAAGGGUA [A67U U127C] is ___
result: 1.01

query: Fill in: self-cleavage of GUUAACGGUCAUAGGCCAUGGAAACUAGGAGCACCAUUUCGCUGCCAGUGAAGAAAUGAGCAAAGAAAAUCUGUGCCAGGCAGGCAUCAAAAGAAAUAGUCUUGCGCUCAACCAGAAAGUCUGUAAUCAUUUUAAGGGUA [A60G G74U] is ___
result: 0.18

query: Fill in: self-cleavage of GUUAACGGUCAUAGGCCAUGGAAACUAGGAGCACCAUUUCGCUGCCAGUGAAGAAAUGAACAAAGAAAAUCUGGGCCAGGCAGGCAUCAAAAGAAAUAGCCUUGCGCUCAACCAGAAAGUCUGUAAUCAUUUUAUGGGUA [U100C A135U] is ___
result: 2.37

query: Fill in: self-cleavage of GUUAACGGUCAUAGGCCAUGGAAACUAGGAGCACCUUUUCGCUGCCAGUGAAGAAAUGAACAAAGAAAAUCUGGGCCAGGCAGGCAUCAAAAGAAAUAGUCUUGCGCUCAACCAGAAAGUCUGUAAUCAUUUUAAGGGAA [A36U U139A] is ___
result: 2.31

query: Fill in: self-cleavage of GUUAACGGUCAUAGGCCAUGGAAACUAGGAGCACCAUUUCGCUGCCAGUGAAGAAAUGAACAAAGAAAAUCUUGGCCAGGCAGGCAUCAAAAGAAAUAGUCUUGUGCUCAACCAGAAAGUCUGUAAUCAUUUUAAGGGUA [G73U C105U] is ___
result: 0.01

query: Fill in: self-cleavage of GUUAACGGUCAUAGGCCAUGGAAACUAGGAGCACCAUUUCGCUGCCAGUGAAGAAAUGAACAAAGAAAAUCUGGGCCAGGCAGGCAUCGAAAGAAAUAGUCUUGCGCUCAACCAGAAAGUCUGUAAUCAUUUUAAGGGUA [A89G] is ___
result: 1.11

query: Fill in: self-cleavage of GUUAACGGUCAUAGGCCAUGGAAACUAGGAGCACCACUUCGCUGCCAGUGAAGAAAUGAACAAAGAAAAUCUGGGCCAGGCAGGCAUCAAAAGAAAUAGUAUUGCGCUCAACCAGAAAGUCUGUAAUCAUUUUAAGGGUA [U37C C101A] is ___
result: 0.22

query: Fill in: self-cleavage of GUUAACGGUCAUAGGCCAUGGAAACUAGGAGCACCAUUUCGUUGCCAGUGAAGAAAUGAACAAAGAAAAUCUGGGCCAGGCAGGCAUCAAAAGAAAUAGUCUUGCGCUCAACCAGAAAGUCUGUAGUCAUUUUAAGGGUA [C42U A126G] is ___
result: 0.91

query: Fill in: self-cleavage of GUUAACGGUCAUAGGCCAUGGAAACUAGGAGCACCGUUUCGCUGCCAGUGAAGAAAUGAACAAAGAAAAUCUGGGCCAGGCAGGCAUCAAAAGAAAUAGUCUUGCGCUCCACCAGAAAGUCUGUAAUCAUUUUAAGGGUA [A36G A110C] is ___
result: 0.39

query: Fill in: self-cleavage of GCUAACGGUCAUAGGCCAUGGAAACUAGGAGCACCAUUUCGCUGCCAGUGAAGAAAUGAACAAAGAAAAUCUGGGCCAGGCAGGCAUCAAAAGAAACAGUCUUGCGCUCAACCAGAAAGUCUGUAAUCAUUUUAAGGGUA [U2C U97C] is ___
result: 0.55

query: Fill in: self-cleavage of GUUAACGGUCAUAGGCCAUGGAAACUAGGAGCACCAUUUCGCUGCCAGCGGAGAAAUGAACAAAGAAAAUCUGGGCCAGGCAGGCAUCAAAAGAAAUAGUCUUGCGCUCAACCAGAAAGUCUGUAAUCAUUUUAAGGGUA [U49C A51G] is ___
result: 0.9

query: Fill in: self-cleavage of GUUAACGGUCAUAGGCCAUGGAAACUAGGAGCACCAUUUCGCUGCCAGUGAAGAAAUGAACAAAGAAAAUCUGCGCCAGGCAGGCAUCAAAAGAAAUAGUCUUGCGCUCAGCCAGAAAGUCUGUAAUCAUUUUAAGGGUA [G74C A111G] is ___
result: 0.02

query: Fill in: self-cleavage of GUUAACGGUCAUAGGCCAUGGAAACUAGGAGCACCAUUUCGCUGCUAGUGAAGAAAUGAACAAAGAUAAUCUGGGCCAGGCAGGCAUCAAAAGAAAUAGUCUUGCGCUCAACCAGAAAGUCUGUAAUCAUUUUAAGGGUA [C46U A67U] is ___
result: 2.2
